B1: Osa-1-4 twister ribozyme (parent)
chain: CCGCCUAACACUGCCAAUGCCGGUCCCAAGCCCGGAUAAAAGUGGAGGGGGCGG

Variants of: B1
Experiment: self-cleavage, relative activity (ratio to wild type); higher = more cleavage; co-transcriptional
Reported metric: self-cleavage
# answer = number (no unit)

>  <Sequence content>
CCGCCUAACACUGCCAAUGCCGGUCCUAAGCCCGGAUAAAAGUUGAGGGGGCGG [C27U G44U]

>  <Observed measurement>
0.12

$$$$
>  <Sequence content>
CCGCCUAACACUGCCAAUGCCGGUCCCAUGCCCGGAUAAAAGUGUAGGGGGCGG [A29U G45U]

>  <Observed measurement>
0.03

$$$$
>  <Sequence content>
CCGCCUAACACUGCCCAUGCCGGUCCCAAGCCCGGAUAAAAGGGGAGGGGGCGG [A16C U43G]

>  <Observed measurement>
0.16

$$$$

Could you please provide reported self-cleavage for CCGCCUAACACUGCCAAUGCCGGUCCCAAGCCCGGAUAAAUGUGGAGCGGGCGG [A41U G48C] ? Thanks!
0.1

For the variant CCGCCUAACACUGCCAAUGACGGUCCCAAGCCCGGAUAAAAGUGGAGGGUGCGG [C20A G50U] , report self-cleavage.
0.82

State, in one line, measured self-cleavage of CCGCCUAACACUGCCAAUGCCGGUCCCUAGCCCGGAUAAAAGUGAAGGGGGCGG [A28U G45A]
0.09

Consider the variant CCGCCUAACACUGCCAAUGCCGGUCCCAAGCCCGGAUAAAAGUCGAGUGGGCGG [G44C G48U] and give its recorded self-cleavage.
0.07

Note down self-cleavage recorded for CCGCCUAACACUGCCAAUGCCGGUCCCAAGCCCCGAUAACAGUGGAGGGGGCGG [A40C G34C]
0.06

Please report the measured self-cleavage for CCGCCUAACACUGACAAUGCCGGUCCCAAGCCCGGAUAAAAGUGGAGGGAGCGG [C14A G50A]
0.09

Query self-cleavage for CCGCCUAACACUGCCAAUGCCGGUCCCGAGCCCGGAUAAAAGUGGAGGGGGCGG [A28G]
0.48

Quickly give me recorded self-cleavage for CCGCCUAACACUGCCAAUGCCGGUCCCAAGCCCGAAUAAAAGUGGAGGGGGCGA [G35A G54A]
0.85

Fill in self-cleavage for record CCGCCUAACACUGCCAAUGCCGGUCCCAAGCCCGGGUAAAAGUGGAGGGGCCGG [A36G G51C]
0.18

Give reported self-cleavage value for CCGCCUAACACUGCCAAUGCCGGUCCCAAGCCCGGAGAAAAGUGGAGGGGGUGG [C52U U37G]
1.06
